applied conditions: in ethyl acetate, 288.6 K
measured quantity: solubility (mole fraction)
Answer as a number with no unit attached.

Exam item: // lookup solubility (mole fraction) for `CCn1c2ccccc2c2cc(-n3nncc3-c3ccccc3)ccc21`
Marked response: 0.00531

====

applied conditions: in methanol, 314.8 K
measured quantity: solubility (mole fraction)
Could you respond with only the numeric value?

Exam item: Fill in the blank: the reported solubility (mole fraction) of `CCn1c2ccccc2c2cc(-n3nncc3-c3ccccc3)ccc21` is ____.
Marked response: 0.00165

====

applied conditions: in isopropanol, 294.2 K
measured quantity: solubility (mole fraction)

Exam item: I have this molecule here, `CCn1c2ccccc2c2cc(-n3nncc3-c3ccccc3)ccc21` , and I need its recorded solubility (mole fraction).
Marked response: 0.000467

====

applied conditions: in methanol, 325 K
measured quantity: solubility (mole fraction)
Simply state the number, no unit and no words.

Exam item: // lookup solubility (mole fraction) for `CCn1c2ccccc2c2cc(-n3nncc3-c3ccccc3)ccc21`
Marked response: 0.00279

====

applied conditions: in isopropanol, 298.4 K
measured quantity: solubility (mole fraction)

Exam item: I'd like to know its solubility (mole fraction). The compound in question is `CCn1c2ccccc2c2cc(-n3nncc3-c3ccccc3)ccc21`
Marked response: 0.000571

====

applied conditions: in isopropanol, 307.7 K
measured quantity: solubility (mole fraction)
Answer with a bare number; do not write a unit.

Exam item: Sample `CCn1c2ccccc2c2cc(-n3nncc3-c3ccccc3)ccc21` — what was its solubility (mole fraction)?
Marked response: 0.000913

====

applied conditions: in acetonitrile, 325 K
measured quantity: solubility (mole fraction)
No unit in the answer, only the number.

Exam item: Please look up its solubility (mole fraction): `CCn1c2ccccc2c2cc(-n3nncc3-c3ccccc3)ccc21`
Marked response: 0.0125

====

applied conditions: in sec-butanol, 279.9 K
measured quantity: solubility (mole fraction)
Lab note: write the figure by itself, no unit.

Exam item: Given the entry `CCn1c2ccccc2c2cc(-n3nncc3-c3ccccc3)ccc21` , report its measured solubility (mole fraction).
Marked response: 0.000287

====

applied conditions: in sec-butanol, 298.4 K
measured quantity: solubility (mole fraction)
Please give the numeric answer without any surrounding text.

Exam item: // query solubility (mole fraction) value for entry `CCn1c2ccccc2c2cc(-n3nncc3-c3ccccc3)ccc21`
Marked response: 0.000892

====

applied conditions: in ethanol, 291.9 K
measured quantity: solubility (mole fraction)
Output spec: single numeric token, no unit.

Exam item: Which solubility (mole fraction) value is on record for `CCn1c2ccccc2c2cc(-n3nncc3-c3ccccc3)ccc21` ?
Marked response: 0.000685

====

applied conditions: in n-butanol, 283.7 K
measured quantity: solubility (mole fraction)
// print number alone

Exam item: Looking for the measured solubility (mole fraction) of `CCn1c2ccccc2c2cc(-n3nncc3-c3ccccc3)ccc21` , can you help?
Marked response: 0.000684

====

applied conditions: in ethanol, 323.2 K
measured quantity: solubility (mole fraction)
The answer should be written as a number, with no unit following it.

Exam item: Suppose we examine the molecule `CCn1c2ccccc2c2cc(-n3nncc3-c3ccccc3)ccc21` ; what solubility (mole fraction) value has been reported?
Marked response: 0.00274

====

applied conditions: in isopropanol, 290.4 K
measured quantity: solubility (mole fraction)
Respond numerically, and do not add a unit to the figure.

Exam item: # solubility (mole fraction) lookup, item `CCn1c2ccccc2c2cc(-n3nncc3-c3ccccc3)ccc21`
Marked response: 0.000352

Taken from BigSolDB 2.1.
